B1: ATE1 (parent)
chain: DYFPSEDFYRCGYCKNESGSRSNG

Variants of: B1
Assay: protein stability index of a GFP-peptide fusion (GPS, HEK-293T) (PSI 1-6); higher = more stable;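 also: lentivirally expressed fusions sorted by FACS into six bins by GFP to DsRed ratio, PSI derived from sequencing read proportions per bin multiplied by bin number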
Details: c terminus: a fixed tail appended
Please mark Criterion met if the recorded protein stability index is equal to or greater than 2, and Criterion not met if it falls below.

Identify whether the reported protein stability index of the following variant is 2 or greater: `R21T` Criterion met

Decide: protein stability index of `R21E` >= 2? Criterion met

Answer whether protein stability index of `Y2W` is greater than or equal to 2. Criterion not met

Please check the record `S20M` and state if its protein stability index is at or above 2. Criterion met

Tell me whether protein stability index is at least 2 here: `N23I` Criterion not met

Please tell me: is the variant `C14H` at or over 2 in terms of protein stability index? Criterion met

Record `P4E` ; criterion: protein stability index no lower than 2. Met? Criterion met

Check this variant for protein stability index at or above 2: `D1M` Criterion met

Decide: protein stability index of `Y2L` >= 2? Criterion met

Check if protein stability index >= 2 (inclusive). Item: `S20F` Criterion not met

Tell me whether protein stability index is at least 2 here: `R21C` Criterion met

Please check the record `S18M` and state if its protein stability index is at or above 2. Criterion not met

Is it the case that `Y13A` has protein stability index reaching or exceeding 2? Criterion met

Exam item: decide whether the reported protein stability index for `R21G` is at least 2. Criterion met

Tell me whether protein stability index is at least 2 here: `R21F` Criterion met

Say whether `G24F` shows protein stability index of 2 or more. Criterion not met

I'd appreciate it if you could say whether `N16P` has protein stability index at least equal to 2. Criterion met

Decide: is the reported value of protein stability index for `G12D` equal to or greater than 2? Criterion met

Given the entry `Y9K` , answer whether its protein stability index meets or surpasses 2. Criterion met

Kindly determine if protein stability index recorded for `G12K` is above or exactly 2. Criterion met
